The measured values listed here are drawn from PubChem BioAssay (NCI).

Tested on: OVCAR-8 ovarian
Assay: NCI tumour cell line growth inhibition, 48 h
attribute.measured: TGI

# example entries with known answers
c1ccc(-c2nc(Nc3ccc(-c4nc5ccccc5[nH]4)cc3)nc(N3CCOCC3)n2)cc1; 3.41 µM
CCCCCCC(N)(CCCCCC)C(=O)Nn1c(C)ccc1C; > 100 µM

For CCc1cc(Cc2cc(CC)c(NC(=O)C3=CC(=O)CC(c4ccc(OC)cc4)O3)c(CC)c2Cl)c(Cl)c(CC)c1NC(=O)C1=CC(=O)CC(c2ccc(OC)cc2)O1 (stereo unspecified) the compound record lists TGI as 90.5 µM

* * *

Each entry below carries its recorded TGI.
Tested on: T-47D breast
Experiment: NCI tumour cell line growth inhibition, 48 h

# example entries with known answers
O=c1c2cc(Br)ccc2oc2ccc(Br)cc12; > 100 µM
CC(=O)Nc1c(C)cc(OCC(=O)O)cc1C; > 100 µM

For COc1nccc(-c2c(-c3ccc(F)cc3)ncn2C2CCC(O)CC2)n1 (stereo not given) the molecule record lists TGI as > 100 µM

For `CCOC(=O)[C@H]1C[C@@H](C(=O)c2ccccc2)N2N=C(c3ccc(Br)cc3)C=C[C@H]12` the molecule record lists TGI as > 100 µM

For `Cc1sc2ncnc(Sc3nc4ccccc4[nH]3)c2c1C` the molecule record lists TGI as 62.9 µM

For `C[C@]12CC[C@H]3[C@@H](CCC4=CC(=O)CC[C@@H]43)[C@@H]1CC[C@@H]2OC1(O)C(=O)c2ccccc2C1=O` the molecule record lists TGI as > 100 µM

For `Oc1ccccc1C=Nc1ccc(Oc2ccc(Cl)cc2)c(Cl)c1` the molecule record lists TGI as 40.1 µM

* * *

Test system: UACC-257 melanoma
Assay: NCI tumour cell line growth inhibition, 48 h
attribute.measured: TGI

# example entries with known answers
CC(=O)OC1[C@H]2c3cc4c(cc3CN3CCC(C[C@@H]1OC(C)=O)C23)OCO4 (some centres not stated); > 75 µM
O=c1c2cc(Br)ccc2oc2ccc(Br)cc12; > 100 µM
c1ccc(C2=NN(c3ccccc3)C3(S2)SC(c2ccccc2)(c2ccccc2)c2ccccc23)cc1 (configuration not stated); > 100 µM
CC(C#N)Nc1ccc(Oc2ccc(C(C)(C)c3ccc(Oc4ccc(NC(C)C#N)cc4)cc3)cc2)cc1 (configuration not stated); > 100 µM

Sample `CCCCOC(=O)/C(CC(=O)C=C(C)C)=N\NS(=O)(=O)c1ccc(C)cc1` , system: UACC-257 melanoma. Its TGI is > 100 µM

Sample CN1C(c2ccccc2)CC(=Nc2ccccc2)CC1c1ccccc1 (configuration not stated) , system: UACC-257 melanoma. Its TGI is 24.1 µM

Sample `S=C(Nc1ccccc1)c1ccccn1` , system: UACC-257 melanoma. Its TGI is > 100 µM

* * *

System: OVCAR-4 ovarian
Test: NCI tumour cell line growth inhibition, 48 h; in the data active means GI50 below about 0.43 µM; inactive means the rest
The categories you may choose from are t for active, f for inactive

O=c1cc/c(=N\Nc2ccccc2)c(=O)/c1=N/Nc1ccccc1; f
CNC(=O)c1cc(Oc2ccc3nc(NC(=O)Nc4ccc(Cl)c(Cl)c4)sc3c2)ccn1; f
CN(C)c1cccc2[nH]c(-c3[nH]ncc3Nc3ccnc(N)n3)nc12; t
CCN(CC)CCC(=O)Nc1cccc2c1C(=O)c1c(c(O)c3ccccc3c1O)C2=O; f

Consider the record given below.
Task: Fill in: this test's call for `COC(=O)C1=CN(CC2=CC(=O)C(C)=CC2=O)C=C(C(=O)OC)C1c1cccc(OC)c1OC` is ___
Result: f
